Assayed Target: uPAR-expressing HEC-265 human endometrial adenocarcinoma cells (Homo sapiens)
Where a SMILES comes first, the peptide text is derived from it. Bridges are numbered along the chain shown (N, C = ends). [ ]: non-standard residue; d: D form. The star is where a group is joined. DOTA = O=C(O)CN1CCN(CC(=O)O)CCN(CC(=O)*)CCN(CC(=O)O)CC1; X8 = O=C(CN(CC(=O)NC(CO)(CO)CO)CC(=O)*)NC(CO)(CO)CO; Hyp = O=C(O)[C@@H]1C[C@@H](O)CN1; Ac6c = NC1(C(=O)O)CCCCC1; Orn = NCCC[C@H](N)C(=O)O; Nva = CCC[C@H](N)C(=O)O; Pentanoyl = CCCCC(=O)*
Known IC50 of a selection of compounds

Compound | Assayed Target | IC50
CCCCC(=O)N[C@H]1CSSC[C@@H](C(N)=O)NC(=O)[C@H](CCC)NC(=O)C2(CCCCC2)NC(=O)[C@@H]2C[C@@H](O)CN2C(=O)[C@@H]2CCCN2C(=O)[C@H](Cc2ccccc2)NC(=O)[C@H](Cc2ccc(O)cc2)NC(=O)[C@H](CCC(N)=O)NC(=O)[C@H](CCCNC(=N)N)NC1=O [UPAR-264] (Pentanoyl-CRQYFP[Hyp][Ac6c][Nva]C-NH2; disulfide 1-10) | uPAR-expressing HEC-265 human endometrial adenocarcinoma cells (Homo sapiens) | ≤ 10 nM
CCCCC(=O)N[C@H]1CSSC[C@@H](C(N)=O)NC(=O)[C@H](CCC)NC(=O)[C@H]([C@@H](C)CC)NC(=O)[C@@H]2C[C@@H](O)CN2C(=O)[C@H](CC(C)C)NC(=O)[C@H](Cc2ccccc2)NC(=O)[C@H](Cc2ccc(O)cc2)NC(=O)[C@H](CCC(N)=O)NC(=O)[C@H](CCCNC(=N)N)NC1=O [UPAR-433] (Pentanoyl-CRQYFL[Hyp]I[Nva]C-NH2; disulfide 1-10) | uPAR-expressing HEC-265 human endometrial adenocarcinoma cells (Homo sapiens) | ≤ 10 nM

Please turn your attention to the following entry.
Need IC50 of CCCCC(=O)N[C@H]1CSSC[C@@H](C(N)=O)NC(=O)[C@H](CCC)NC(=O)[C@H]([C@@H](C)CC)NC(=O)[C@@H]2C[C@@H](O)CN2C(=O)[C@@H]2CCCN2C(=O)[C@H](Cc2ccccc2)NC(=O)[C@H](Cc2ccc(O)cc2)NC(=O)[C@H](CCCCNC(=O)CN2CCN(CC(=O)O)CCN(CC(=O)O)CCN(CC(=O)O)CC2)NC(=O)[C@H](CCCNC(=O)CN(CC(=O)NC(CO)(CO)CO)CC(=O)NC(CO)(CO)CO)NC1=O [UPAR-224] (Pentanoyl-C[Orn](X8)K(DOTA)YFP[Hyp]I[Nva]C-NH2; disulfide 1-10) , thanks. ≤ 10 nM

---

Assayed Target: human uPAR (uPAR-Fc) (Homo sapiens)
Construct: comprising amino acids Leu23-Arg303 according to UniProt entry Q03405.1; purchased R&D Systems 10378-UK-100
Sequence (Q03405 23-303): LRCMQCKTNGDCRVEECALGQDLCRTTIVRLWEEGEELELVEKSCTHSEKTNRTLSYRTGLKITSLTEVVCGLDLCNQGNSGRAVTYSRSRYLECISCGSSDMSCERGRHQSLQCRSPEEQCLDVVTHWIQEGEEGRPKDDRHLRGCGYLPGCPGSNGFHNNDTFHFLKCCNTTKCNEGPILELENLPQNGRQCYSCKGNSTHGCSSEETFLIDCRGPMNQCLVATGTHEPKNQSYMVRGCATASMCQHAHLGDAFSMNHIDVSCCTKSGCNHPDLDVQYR
Assay Overview: Surface plasmon resonance (SPR) assay, single cycle kinetics
Format: binding
Stated Conditions: pKD category for uPAR SPR activity assay; uPAR-Fc on Protein A-Chip, 25°C; read-out: pKD CAT (converted)
Where a SMILES comes first, the peptide text is derived from it. Bridges are numbered along the chain shown (N, C = ends). [ ]: non-standard residue; d: D form. The star is where a group is joined. DOTA = O=C(O)CN1CCN(CC(=O)O)CCN(CC(=O)*)CCN(CC(=O)O)CC1; Pro(4S-NH2) = N[C@@H]1CN[C@H](C(=O)O)C1; Phe(2-Cl) = N[C@@H](Cc1ccccc1Cl)C(=O)O; Hyp = O=C(O)[C@@H]1C[C@@H](O)CN1; Pentanoyl(4-Me) = CC(C)CCC(=O)*; Cit = NC(=O)NCCC[C@H](N)C(=O)O; NMeA = CN[C@@H](C)C(=O)O; Nva = CCC[C@H](N)C(=O)O; Pentanoyl = CCCCC(=O)*
Assay Endpoint: Kd

Molecule | Assayed Target | Kd
CCCCC(=O)N[C@H]1CSSC[C@@H](C(N)=O)NC(=O)[C@H](CCC)NC(=O)[C@H]([C@@H](C)CC)NC(=O)[C@@H]2C[C@@H](O)CN2C(=O)[C@@H]2CCCN2C(=O)[C@H](Cc2ccccc2)NC(=O)[C@H](CC(C)C)NC(=O)[C@H](CCC(N)=O)NC(=O)[C@H](CCCNC(=N)N)NC1=O [UPAR-195] (Pentanoyl-CRQLFP[Hyp]I[Nva]C-NH2; disulfide 1-10) | human uPAR (uPAR-Fc) (Homo sapiens) | 1.58 to 10 nM
CCCCC(=O)N[C@H]1CSSC[C@@H](C(N)=O)NC(=O)[C@H](CCC)NC(=O)[C@H]([C@@H](C)CC)NC(=O)[C@H](C)N(C)C(=O)[C@@H]2CCCN2C(=O)[C@H](Cc2ccccc2)NC(=O)[C@H](Cc2ccc(O)cc2)NC(=O)[C@H](CCCCNC(=O)CN2CCN(CC(=O)O)CCN(CC(=O)O)CCN(CC(=O)O)CC2)NC(=O)[C@H](CCCNC(N)=O)NC1=O [UPAR-316] (Pentanoyl-C[Cit]K(DOTA)YFP[NMeA]I[Nva]C-NH2; disulfide 1-10) | human uPAR (uPAR-Fc) (Homo sapiens) | 1.58 to 10 nM
CC[C@H](C)[C@@H]1NC(=O)[C@@H](C)NC(=O)[C@@H]2CCCN2C(=O)[C@H](Cc2ccccc2Cl)NC(=O)[C@H](Cc2ccc(O)cc2)NC(=O)[C@H](CCC(N)=O)NC(=O)[C@H](CCCNC(N)=O)NC(=O)[C@@H](NC(=O)CCC(C)C)CSSC[C@@H](C(N)=O)NC(=O)[C@H](CC(C)C)NC1=O [UPAR-221] ({Pentanoyl(4-Me)}-C[Cit]QY[Phe(2-Cl)]P[dA]ILC-NH2; disulfide 1-10) | human uPAR (uPAR-Fc) (Homo sapiens) | < 1.58 nM
CC[C@H](C)[C@@H]1NC(=O)[C@@H](C)NC(=O)[C@@H]2CCCN2C(=O)[C@H](Cc2ccccc2)NC(=O)[C@H](Cc2ccc(O)cc2)NC(=O)[C@H](CCC(N)=O)NC(=O)[C@H](CCCNC(N)=O)NC(=O)[C@@H](NC(=O)CCC(C)C)CSSC[C@@H](C(N)=O)NC(=O)[C@H](C(C)C)NC1=O [UPAR-184] ({Pentanoyl(4-Me)}-C[Cit]QYFP[dA]IVC-NH2; disulfide 1-10) | human uPAR (uPAR-Fc) (Homo sapiens) | 1.58 to 10 nM

Please turn your attention to the following entry.
Need Kd of CCCCC(=O)N[C@H]1CSSC[C@@H](C(N)=O)NC(=O)[C@H](CCC)NC(=O)[C@H]([C@@H](C)CC)NC(=O)[C@@H]2C[C@H](N)CN2C(=O)[C@@H]2CCCN2C(=O)[C@H](Cc2ccccc2)NC(=O)[C@H](Cc2ccc(O)cc2)NC(=O)[C@H](CCCCNC(=O)CN2CCN(CC(=O)O)CCN(CC(=O)O)CCN(CC(=O)O)CC2)NC(=O)[C@H](CCCNC(N)=O)NC1=O [UPAR-325] (Pentanoyl-C[Cit]K(DOTA)YFP[Pro(4S-NH2)]I[Nva]C-NH2; disulfide 1-10) , thanks. < 1.58 nM

---

Assay Overview: Plasma stability assay (mouse plasma)
Format: in vitro ADME
Stated Conditions: mouse plasma (sodium citrate 3.7%), 37°C, LC-MS quantification, read-out: % intact compound remaining after 6h incubation Mouse plasma
Where a SMILES comes first, the peptide text is derived from it. Bridges are numbered along the chain shown (N, C = ends). [ ]: non-standard residue; d: D form. The star is where a group is joined. Hyp = O=C(O)[C@@H]1C[C@@H](O)CN1; Pentanoyl(4-Me) = CC(C)CCC(=O)*; Cit = NC(=O)NCCC[C@H](N)C(=O)O
Assay Endpoint: remaining at 6 h, 9.8 µM (%)
Respond numerically; units are % and should not be typed.

Need remaining at 6 h, 9.8 µM of CC[C@H](C)[C@@H]1NC(=O)[C@@H]2C[C@@H](O)CN2C(=O)[C@@H]2CCCN2C(=O)[C@H](Cc2ccccc2)NC(=O)[C@H](Cc2ccc(O)cc2)NC(=O)[C@H](CCC(N)=O)NC(=O)[C@H](CCCNC(N)=O)NC(=O)[C@@H](NC(=O)CCC(C)C)CSSC[C@@H](C(N)=O)NC(=O)[C@H](CC(C)C)NC1=O [UPAR-174] ({Pentanoyl(4-Me)}-C[Cit]QYFP[Hyp]ILC-NH2; disulfide 1-10) , thanks. 71

---

Assayed Target: uPAR-expressing HEC-265 human endometrial adenocarcinoma cells (Homo sapiens, UniProt Q03405)
Sequence (Q03405 23-335): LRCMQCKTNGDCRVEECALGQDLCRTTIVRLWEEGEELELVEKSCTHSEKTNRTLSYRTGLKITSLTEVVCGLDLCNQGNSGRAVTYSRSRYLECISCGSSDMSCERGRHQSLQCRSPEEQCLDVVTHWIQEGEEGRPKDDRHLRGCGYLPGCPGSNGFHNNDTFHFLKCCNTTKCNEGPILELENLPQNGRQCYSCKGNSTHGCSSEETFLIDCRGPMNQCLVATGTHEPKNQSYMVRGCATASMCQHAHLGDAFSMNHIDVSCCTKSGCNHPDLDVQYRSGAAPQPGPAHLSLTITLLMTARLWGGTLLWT
pIC50: −log10 of the molar value. Where a SMILES comes first, the peptide text is derived from it. Bridges are numbered along the chain shown (N, C = ends). [ ]: non-standard residue; d: D form. The star is where a group is joined. DOTA = O=C(O)CN1CCN(CC(=O)O)CCN(CC(=O)*)CCN(CC(=O)O)CC1; Hyp = O=C(O)[C@@H]1C[C@@H](O)CN1; Pentanoyl(4-Me) = CC(C)CCC(=O)*; Cit = NC(=O)NCCC[C@H](N)C(=O)O; Nle = CCCC[C@H](N)C(=O)O; Api = NC1(C(=O)O)CCNCC1; Nva = CCC[C@H](N)C(=O)O; Abu = CC[C@H](N)C(=O)O; Pentanoyl = CCCCC(=O)*; NEtG = CCNCC(=O)O
Assay Endpoint: pIC50

Answered examples (5):
Compound | pIC50
CCCC[C@@H]1NC(=O)[C@H]([C@@H](C)CC)NC(=O)[C@@H](C)NC(=O)[C@@H]2CCCN2C(=O)[C@H](Cc2ccccc2)NC(=O)[C@H](Cc2ccc(O)cc2)NC(=O)[C@H](CCC(N)=O)NC(=O)[C@H](CCCNC(N)=O)NC(=O)[C@@H](NC(=O)CCC(C)C)CSSC[C@@H](C(N)=O)NC1=O [UPAR-345] ({Pentanoyl(4-Me)}-C[Cit]QYFP[dA]I[Nle]C-NH2; disulfide 1-10) | ≥ 8.00
CCCCC(=O)N[C@H]1CSSC[C@@H](C(N)=O)NC(=O)[C@H](CCC)NC(=O)[C@H]([C@@H](C)CC)NC(=O)[C@@H]2C[C@@H](O)CN2C(=O)[C@@H]2CCCN2C(=O)[C@H](Cc2ccccc2)NC(=O)[C@H](Cc2ccc(O)cc2)NC(=O)[C@H](CCCCNC(=O)CN2CCN(CC(=O)O)CCN(CC(=O)O)CCN(CC(=O)O)CC2)NC(=O)[C@H]([C@@H](C)O)NC1=O [UPAR-301] (Pentanoyl-CTK(DOTA)YFP[Hyp]I[Nva]C-NH2; disulfide 1-10) | ≥ 8.00
CCCCC(=O)N[C@H]1CSSC[C@@H](C(N)=O)NC(=O)[C@H](CCC)NC(=O)[C@H]([C@@H](C)CC)NC(=O)[C@H](Cc2ccc(O)cc2)NC(=O)[C@@H]2CCCN2C(=O)[C@H](Cc2ccccc2)NC(=O)[C@H](Cc2ccc(O)cc2)NC(=O)[C@H](CCC(N)=O)NC(=O)[C@H](CCCNC(=N)N)NC1=O [UPAR-226] (Pentanoyl-CRQYFPYI[Nva]C-NH2; disulfide 1-10) | ≥ 8.00
CC[C@H](C)[C@@H]1NC(=O)C2(CCN(C(=O)CN3CCN(CC(=O)O)CCN(CC(=O)O)CCN(CC(=O)O)CC3)CC2)NC(=O)[C@@H]2CCCN2C(=O)[C@H](Cc2ccccc2)NC(=O)[C@H](Cc2ccc(O)cc2)NC(=O)[C@H](CCC(N)=O)NC(=O)[C@H](CCCNC(N)=O)NC(=O)[C@@H](NC(=O)CCC(C)C)CSSC[C@@H](C(N)=O)NC(=O)[C@H](CC(C)C)NC1=O [UPAR-219] ({Pentanoyl(4-Me)}-C[Cit]QYFP[Api](DOTA)ILC-NH2; disulfide 1-10) | ≥ 8.00
CC[C@@H]1NC(=O)[C@H]([C@@H](C)CC)NC(=O)[C@@H](C)NC(=O)[C@@H]2CCCN2C(=O)[C@H](Cc2ccccc2)NC(=O)[C@H](Cc2ccc(O)cc2)NC(=O)[C@H](CCC(N)=O)NC(=O)[C@H](CCCNC(N)=O)NC(=O)[C@@H](NC(=O)CCC(C)C)CSSC[C@@H](C(N)=O)NC1=O [UPAR-451] ({Pentanoyl(4-Me)}-C[Cit]QYFP[dA]I[Abu]C-NH2; disulfide 1-10) | ≥ 8.00

Need pIC50 of CCNCC(=O)N[C@H]1CSSC[C@@H](C(N)=O)NC(=O)[C@H](CC(C)C)NC(=O)[C@H]([C@@H](C)CC)NC(=O)[C@@H](C)NC(=O)[C@@H]2CCCN2C(=O)[C@H](Cc2ccccc2)NC(=O)[C@H](Cc2ccc(O)cc2)NC(=O)[C@H](CCC(N)=O)NC(=O)[C@H](CCCNC(N)=O)NC1=O [UPAR-462] (H-[NEtG]C[Cit]QYFP[dA]ILC-NH2; disulfide 2-11) , thanks. 7.00 to 7.40
